Values were extracted from patent US11708357B2.

- methodSummary: In vivo pharmacokinetic study in rats after single administration
- runConditions: male, Sprague Dawley, rat, plasma, 300 mg/kg, 300 mpk oral administration

# molecularString, resultUnits, Tmax
data = [
    ("COCCN1C[C@@H](n2ccc(F)c2)[C@H](NC(=O)Nc2c(C)c(-c3cnc(C4(F)COC4)nc3)nn2-c2ccccc2)C1", "min", 45),
]

---

- methodSummary: In vivo pharmacokinetic study in mice after single administration
- Parameters: species or system CD-1 mice
- runConditions: male, CD-1, mouse, plasma, 2 mg/kg, 2 mpk intravenous injection

# molecularString, clearance [mL/min/kg]
measured = [
    ("COCCN1C[C@@H](n2ccc(F)c2)[C@H](NC(=O)Nc2c(C)c(-c3cnc(C4(F)COC4)nc3)nn2-c2ccccc2)C1", 41.7),
]
